Here, each record is paired with measured viability at 5 µM data.
System: colon cancer cell line HCT 116
assay-comment: Growth profile / viability of HCT116 colon cancer cells, XTT test
Type: cell-based
condition-label: Homo sapiens, HCT-116, 96 h, Control DMSO = 100%, first HCT116 column, read-out: percentage of viable cells, HCT116
Numeric only. Scale: %

# count of solved cases: 2
So for CCN1CCN(CC2CCN(C(=O)C3CCN(c4nn5cc(-c6ccc(Cl)cc6)nc5s4)CC3)CC2)CC1 , the logged viability at 5 µM turned out to be 1

So for Cc1c(-c2ccc(-n3cccn3)cc2)nc2sc(N3CCC(C(=O)N4CCN(C)CC4)CC3)nn12 , the logged viability at 5 µM turned out to be 110

Read the next record carefully.
So for O=C(C1CCN(c2nn3cc(-c4ccc(Cl)cc4)nc3s2)CC1)N1CCN(c2ccccn2)CC1 , the logged viability at 5 µM turned out to be 94

* * *

assay-comment: Viability of FS non malignant fibroblastic cells, XTT test
Format: cell-based
condition-label: FS cells (non-malignant fibroblastic cell line), Control DMSO = 100%, second FS column, read-out: percentage of viable cells, FS
measurement-type: viability at 96 h, 5 µM (%)
Numeric only. Scale: %

So for CC(C)c1ccc(-c2cn3nc(N4CCC(C(=O)N5CCCCC5CCN5CCOCC5)CC4)sc3n2)cc1 (stereo not drawn) [Compound Z522-0234] , the logged viability at 96 h, 5 µM turned out to be 105

So for CC(C)c1ccc(-c2cn3nc(N4CCC(C(=O)N(C)C5CCN(C)CC5)CC4)sc3n2)cc1 [Compound Z522-0225] , the logged viability at 96 h, 5 µM turned out to be 28

Read the next record carefully.
So for CN1CCN(C(=O)C2CCN(c3nn4cc(-c5ccc(-n6cccn6)cc5)nc4s3)CC2)CC1 [Compound Z522-0167] , the logged viability at 96 h, 5 µM turned out to be 92

* * *

assay-comment: Viability of FS non malignant fibroblastic cells, XTT test
Assay type: cell-based
condition-label: FS cells (non-malignant fibroblastic cell line), Control DMSO = 100%, first FS column, read-out: percentage of viable cells, FS
Description: The effect of the compounds Z522-XXX on the growth profile of cancer cells which express Fer was tested. The cells that were tested were: the colon cancer cell lines HT29 and HCT 116, RKO. […] Generally, cells were seeded in 96 wells microplates and were left to grow untreated overnight. […] The percentage of viable cells in each well was determined 96 hours after compounds addition, using the XTT test (Berridge, M. V. et al, 2005).
Category key, based on recorded viability at 96 h, 5 µM: low bin = under 80%, mid bin = from 80% up to 90%, high bin = 90% and over

Worked examples, 10 compounds total:
Prompt line: Quick check: band for CCN(CC)CCN(CC)C(=O)C1CCN(c2nn3cc(-c4ccc(Cl)cc4)nc3s2)CC1
Response line: low bin

Prompt line: Quick check: band for Cc1c(-c2ccc(N3CCOCC3)cc2)nc2sc(N3CCC(C(=O)N4CCN(C)CC4)CC3)nn12
Response line: mid bin

Prompt line: Quick check: band for CC(C)N1CCN(c2ccc(-c3cn4nc(N5CCC(C(=O)N6CCN(C)CC6)CC5)sc4n3)cc2)CC1
Response line: high bin

Prompt line: Quick check: band for CN1CCC(N(C)C(=O)C2CCN(c3nn4cc(-c5ccc(Cl)cc5)nc4s3)CC2)CC1
Response line: low bin

Prompt line: Quick check: band for Cc1c(-c2ccc(N(C)CCO)cc2)nc2sc(N3CCC(C(=O)N4CCN(C)CC4)CC3)nn12
Response line: high bin

Prompt line: Quick check: band for CC(C)c1ccc(-c2cn3nc(N4CCC(C(=O)N5CCN(c6ccccn6)CC5)CC4)sc3n2)cc1
Response line: mid bin

Prompt line: Quick check: band for O=C(C1CCN(c2nn3cc(-c4ccc(Cl)cc4)nc3s2)CC1)N1CCCCC1CCN1CCOCC1 (stereo not shown)
Response line: low bin

Prompt line: Quick check: band for CC(C)c1ccc(-c2cn3nc(N4CCC(C(=O)N5CCN(C6CCN(C)CC6)CC5)CC4)sc3n2)cc1
Response line: low bin

Prompt line: Quick check: band for CCN(CC)CCN(CC)C(=O)C1CCN(c2nn3cc(-c4ccc(C(C)C)cc4)nc3s2)CC1
Response line: low bin

Prompt line: Quick check: band for O=C(C1CCN(c2nn3cc(-c4ccc(Cl)cc4)nc3s2)CC1)N1CCCC(CN2CCOCC2)C1 (stereo not shown)
Response line: high bin

More entries:
Prompt line: Quick check: band for CN(C)CCNC(=O)CN(C)C(=O)C1CCN(c2nn3cc(-c4ccc(Cl)cc4)nc3s2)CC1
Response line: mid bin

Prompt line: Quick check: band for CN1CCN(C(=O)C2CCN(c3nn4cc(-c5ccc(N6CCSCC6)cc5)nc4s3)CC2)CC1
Response line: high bin

Prompt line: Quick check: band for O=C(C1CCN(c2nn3cc(-c4ccc(Cl)cc4)nc3s2)CC1)N1CCN(c2ncccn2)CC1
Response line: high bin

Prompt line: Quick check: band for CN1CCN(C(=O)CN2CCN(C(=O)C3CCN(c4nn5cc(-c6ccc(Cl)cc6)nc5s4)CC3)CC2)CC1
Response line: mid bin

Prompt line: Quick check: band for CC(C)c1ccc(-c2cn3nc(N4CCC(C(=O)N(C)CC(=O)NCCN(C)C)CC4)sc3n2)cc1
Response line: mid bin

Prompt line: Quick check: band for Cc1c(-c2ccc(N3CCSCC3)cc2)nc2sc(N3CCC(C(=O)N4CCN(C)CC4)CC3)nn12
Response line: low bin

Prompt line: Quick check: band for O=C(C1CCN(c2nn3cc(-c4ccc(Cl)cc4)nc3s2)CC1)N1CCCCC1CN1CCOCC1 (stereo not shown)
Response line: mid bin
